binding signal: recorded values
Target: MBP-FoxP3dN (Mus musculus, UniProt Q99JB6 188-423)
Sequence: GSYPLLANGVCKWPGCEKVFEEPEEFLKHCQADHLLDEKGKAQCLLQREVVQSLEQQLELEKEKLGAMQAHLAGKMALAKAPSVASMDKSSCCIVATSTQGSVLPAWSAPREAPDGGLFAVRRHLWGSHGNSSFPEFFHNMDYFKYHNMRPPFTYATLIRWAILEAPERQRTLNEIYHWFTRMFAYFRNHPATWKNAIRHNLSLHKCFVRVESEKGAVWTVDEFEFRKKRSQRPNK
Experiment: PD-seq (MBP pull-down with sequencing); 20 mM Tris-HCl pH 7.5, 100 mM NaCl, 1.5 mM MgCl2, 0.4 uM protein, 0.1 uM dsDNA library, 30 min, room temperature, amylose pull-down; high values mean tight binding
Settings: protein: recombinant; tags: His6-MBP; chain copies: 2; dsDNA, one strand shown
Over roughly 16,000 sequences, “rpm ratio (pull-down/input)” has its median near 0.5; the highest 2% begin near 5.5. The sample holds the highest values, similar sequences and a random draw of the others, so the mix is not that of the screen.

Please review the following examples before continuing.
1. GATGATTGTTCTCCCAGCTGATGAATTATTTTATTCGAGTAAACAAATTTTCCTAATCTTTCTGTTCAAGCGCCATCTAC; 0.489 RPM ratio (pull-down/input)
2. GATGATTGTTCTCCCAGCTGATGAATTTGTTGGTTCGAGTAAACAAATTTTCCTAATCTTTCTGTTCAAGCGCCATCTAC; 7.67 RPM ratio (pull-down/input)

Ask | # binding signal lookup, item `GATGATTGTTCTCCCAGCTGATGAATTGCGTATTTCGAGTAAACAAATTTTCCTAATCTTTCTGTTCAAGCGCCATCTAC`
Reply | 3.53 RPM ratio (pull-down/input)

###

Molecular target: MBP-FoxP3dN (Mus musculus, UniProt Q99JB6 188-423)
Sequence: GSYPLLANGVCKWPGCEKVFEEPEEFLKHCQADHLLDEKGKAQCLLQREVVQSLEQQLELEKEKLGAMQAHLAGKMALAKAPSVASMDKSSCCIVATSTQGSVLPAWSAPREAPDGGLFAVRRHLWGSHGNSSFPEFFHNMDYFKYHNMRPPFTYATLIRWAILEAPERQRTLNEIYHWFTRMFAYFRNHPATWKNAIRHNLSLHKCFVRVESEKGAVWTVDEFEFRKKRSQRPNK
Experiment: PD-seq (MBP pull-down with sequencing); 20 mM Tris-HCl pH 7.5, 100 mM NaCl, 1.5 mM MgCl2, 0.4 uM protein, 0.1 uM dsDNA library, 30 min, room temperature, amylose pull-down; high values mean tight binding
Conditions: protein: recombinant; tags: His6-MBP; chain copies: 2; dsDNA, one strand shown
Over roughly 16,000 sequences, “rpm ratio (pull-down/input)” has its median near 0.5; the highest 2% begin near 5.5. The entries come from a sample that favours the highest values as a whole.
binding signal: recorded values

1) GATGATTGTTCTCCCAGCTGATGAATTTCTACCGTCGAGTAAACAAATTTTCCTAATCTTTCTGTTCAAGCGCCATCTAC; 0.222 RPM ratio (pull-down/input)
2) GATGATTGTTCTCCCAGCTGATGAATTCTCCATGTCGAGTAAACAAATTTTCCTAATCTTTCTGTTCAAGCGCCATCTAC; 0.249 RPM ratio (pull-down/input)
3) GATGATTGTTCTCCCAGCTGATGAATTGTGGTACTCGAGTAAACAAATTTTCCTAATCTTTCTGTTCAAGCGCCATCTAC; 1.06 RPM ratio (pull-down/input)
4) GATGATTGTTCTCCCAGCTGATGAATTGCCCATGTCGAGTAAACAAATTTTCCTAATCTTTCTGTTCAAGCGCCATCTAC; 0.577 RPM ratio (pull-down/input)
5) GATGATTGTTCTCCCAGCTGATGAATTCTTTTACTCGAGTAAACAAATTTTCCTAATCTTTCTGTTCAAGCGCCATCTAC; 0.312 RPM ratio (pull-down/input)

Ask | # binding signal lookup, item `GATGATTGTTCTCCCAGCTGATGAATTCGATATTTCGAGTAAACAAATTTTCCTAATCTTTCTGTTCAAGCGCCATCTAC`
Reply | 1.79 RPM ratio (pull-down/input)

Ask | # binding signal lookup, item `GATGATTGTTCTCCCAGCTGATGAATTTATGCGGTCGAGTAAACAAATTTTCCTAATCTTTCTGTTCAAGCGCCATCTAC`
Reply | 1.09 RPM ratio (pull-down/input)
